method_summary: Dynamic vapor sorption (DVS) hygroscopicity
Type: physicochemical
condition: DVS, 25° C., >95% RH
observed_property: acquisition of water on exposure to elevated relative humidities

Batch of 4 compounds: report acquisition of water on exposure to elevated relative humidities for each.
1. CN(C)CCc1c[nH]c2ccccc12 [Example 4]
2. CN(C)CCc1c[nH]c2ccccc12 [Example 3]
3. CN(C)CCc1c[nH]c2ccccc12 [Example 1]
4. CN(C)CCc1c[nH]c2ccccc12 [Example 2]

< 0.5 % w/w
< 0.06 % w/w
< 0.2 % w/w
< 0.05 % w/w

====

method_summary: Salt form assessment (crystallization propensity, DSC/XRPD physical properties, appearance, counter-ion acceptability, salt suitability)
Assay type: physicochemical
Design: key: “+/+/+” indicates most favorable; “+/+” indicates more favorable; “+” indicates favorable; “−” indicates unfavorable; “−/−” indicates more unfavorable; “−/−/−” indicates most unfavorable
condition: crystallization from ethanol
observed_property: Crystallization propensity

CN(C)CCc1c[nH]c2ccccc12 [Example 1]    +/+/+
CN(C)CCc1c[nH]c2ccccc12 [Example 5]    +
CN(C)CCc1c[nH]c2ccccc12 [Example 6]    −
CN(C)CCc1c[nH]c2ccccc12 [Example 3]    +
CN(C)CCc1c[nH]c2ccccc12 [Example 9]    −

Batch of 4 molecules: report Crystallization propensity for each.
1. CN(C)CCc1c[nH]c2ccccc12 [Example 2]
2. CN(C)CCc1c[nH]c2ccccc12 [Example 4]
3. CN(C)CCc1c[nH]c2ccccc12 [Example 8]
4. CN(C)CCc1c[nH]c2ccccc12 [Example 7]

1. +/+/+
2. −
3. −
4. −
